- Tested on: Escherichia coli
- TEST METHOD NOTES: Antimicrobial activity against Escherichia coli JM109 harboring pE1 plasmid expressing beta-lactamase SHV-11 by agar dilution method
- Assay type: functional
Give measured MIC for each item. Keep answers brief.
Answers are plain numbers, in µg/mL.

Would you please look over these solved cases?
CC(=O)OCC1=C(C(=O)O)N2C(=O)[C@@H](NC(=O)Cc3cccs3)[C@H]2SC1 8
CCN1CCN(C(=O)N[C@@H](C(=O)N[C@@H]2C(=O)N3[C@@H]2SC(C)(C)[C@@H]3C(=O)O)c2ccccc2)C(=O)C1=O 64
CC1(C)S[C@@H]2[C@H](NC(=O)[C@H](C(=O)O)c3ccsc3)C(=O)N2[C@H]1C(=O)O 2050
CC1(C)S[C@@H]2[C@H](NC(=O)[C@H](N)c3ccc(O)cc3)C(=O)N2[C@H]1C(=O)O 2050

Now for another entry.
What reported MIC corresponds to `CC1(C)S[C@@H]2[C@H](NC(=O)[C@H](N)c3ccccc3)C(=O)N2[C@H]1C(=O)O` on Escherichia coli?
1020

---

- System: Escherichia coli
- TEST METHOD NOTES: Antimicrobial activity against Escherichia coli JM109 harboring pSC1 plasmid expressing beta-lactamase SHV-56 by agar dilution method
- Assay type: functional
Give measured MIC for each item. Keep answers brief.
One number for each entry, in µg/mL.

Would you please look over these solved cases?
COMPOUND	TARGET ENTITY	UNIT TAG	MIC
CC(=O)OCC1=C(C(=O)O)N2C(=O)[C@@H](NC(=O)Cc3cccs3)[C@H]2SC1 [CEPHALOTHIN]	Escherichia coli	µg/mL	8
CC1(C)S[C@@H]2[C@H](NC(=O)[C@H](N)c3ccccc3)C(=O)N2[C@H]1C(=O)O [AMPICILLIN]	Escherichia coli	µg/mL	2050
CC1(C)S[C@@H]2[C@H](NC(=O)[C@H](N)c3ccc(O)cc3)C(=O)N2[C@H]1C(=O)O [AMOXICILLIN]	Escherichia coli	µg/mL	4100

Now for another entry.
Given the compound CCN1CCN(C(=O)N[C@@H](C(=O)N[C@@H]2C(=O)N3[C@@H]2SC(C)(C)[C@@H]3C(=O)O)c2ccccc2)C(=O)C1=O [PIPERACILLIN] , what is its reported MIC?
512

---

- Test system: Klebsiella pneumoniae
- TEST METHOD NOTES: Antimicrobial activity against Klebsiella pneumoniae Kp2792 expressing beta-lactamase SHV-56 by agar dilution method
- Assay type: functional
Give measured MIC for each item. Keep answers brief.

Would you please look over these solved cases?
COMPOUND	MIC
CC1(C)S[C@@H]2[C@H](NC(=O)[C@H](C(=O)O)c3ccsc3)C(=O)N2[C@H]1C(=O)O	> 4100 µg/mL
CO/N=C(\C(=O)N[C@@H]1C(=O)N2C(C(=O)O)=C(COC(C)=O)CS[C@H]12)c1csc(N)n1	≤ 0.1 µg/mL
CC(=O)OCC1=C(C(=O)O)N2C(=O)[C@@H](NC(=O)Cc3cccs3)[C@H]2SC1	8 µg/mL
CC1(C)S[C@@H]2[C@H](NC(=O)[C@H](N)c3ccccc3)C(=O)N2[C@H]1C(=O)O	> 4100 µg/mL
CO/N=C(\C(=O)N[C@@H]1C(=O)N2C(C(=O)[O-])=C(C[N+]3(C)CCCC3)CS[C@H]12)c1csc(N)n1	≤ 0.1 µg/mL
CCN1CCN(C(=O)N[C@@H](C(=O)N[C@@H]2C(=O)N3[C@@H]2SC(C)(C)[C@@H]3C(=O)O)c2ccccc2)C(=O)C1=O	512 µg/mL
C[C@@H](O)[C@H]1C(=O)N2C(C(=O)O)=C(SCCNC=N)C[C@H]12 [IMIPENEM ANHYDROUS]	≤ 0.1 µg/mL

Now for another entry.
Given the compound `CC1(C)S[C@@H]2[C@H](NC(=O)[C@H](N)c3ccc(O)cc3)C(=O)N2[C@H]1C(=O)O` , what is its reported MIC?
> 4100 µg/mL

The measurements presented in this section are drawn from ChEMBL document CHEMBL1275511.
